Known TGI of a selection of compounds
# Tested on: A498 renal
# Test protocol: NCI tumour cell line growth inhibition, 48 h

Compound	Study target	Unit annotation	Comparison symbol	TGI
COc1cc([C@@H]2c3cc4c(cc3[C@@H](N=Cc3ccc(C(=O)O[C@H]5C[C@H]6OC[C@@]6(OC(C)=O)[C@H]6[C@H](OC(=O)c7ccccc7)[C@]7(O)C[C@H](OC(=O)[C@H](OC(=O)c8ccc(C=N[C@@H]9c%10cc%11c(cc%10[C@@H](c%10cc(OC)c(O)c(OC)c%10)[C@H]%10C(=O)OC[C@@H]%109)OCO%11)cc8)[C@@H](NC(=O)c8ccccc8)c8ccccc8)C(C)=C([C@@H](OC(C)=O)C(=O)[C@]56C)C7(C)C)cc3)C3COC(=O)C32)OCO4)cc(C)c1O (some centres undefined)	A498 renal	µM	=	29.2
Fc1cccc(C=NC23CC4CC(CC(C4)C2)C3)c1	A498 renal	µM	>	100
Nc1ncn([C@@H]2C=C(CO)C(O)C2O)c(=O)n1 (some centres undefined)	A498 renal	µM	>	100
Cc1ccc(S(=O)(=O)OC(C=O)C(O)C(O)COC(c2ccccc2)(c2ccccc2)c2ccccc2)cc1 (centres undefined)	A498 renal	µM	=	32.6

* * *

Known TGI of a selection of compounds
# System: OVCAR-3 ovarian
# Test protocol: NCI tumour cell line growth inhibition, 48 h
Measurement name: TGI

Compound	Recorded result
Nc1cccc2cc(S(=O)(=O)Nc3ccc(C(=O)O)cc3)ccc12	> 100 µM
O=C(NCCS(=O)(=O)N1C(=O)C2CCCN2C(=O)[C@@H]1Cc1ccccc1)OCc1ccccc1 (stereo partly specified)	70.2 µM
CCOC(=O)C1=C(O)CSC1=Nc1ccc(N=C2SCC(O)=C2C(=O)OCC)cc1	> 100 µM
CC/C(=C(/CC)c1ccc(OP(=O)([O-])[O-])cc1)c1ccc(OP(=O)([O-])[O-])cc1.N.N.N.N.[Pt+4].[Pt+4]	8.89 µM
CC(=O)N(CCc1ccccc1)C(C)(C#N)c1ccccc1 (stereo unspecified)	> 100 µM
Cc1ccc(C)c(NC(=O)CCC(=O)CC(=O)C(C)(C)C)c1	> 100 µM
CN(C)c1ccc(N=C(C#N)c2nc(N)nc(N3CCOCC3)n2)cc1	> 100 µM
COC1(CCO)CC=CCC1(CCO)OC (stereo unspecified)	> 100 µM
N=C(N)c1ccc(-c2ccc(-c3ccccc3)o2)cc1	13.4 µM
O=C(/C=C/c1cccnc1)/C=C/c1cccnc1	2.33 µM
COC(=O)[C@@]12C3=NO[C@]1(C(=O)OC)C(O[Si](C)(C)C(C)(C)C)C1OC(C)(C)OC1[C@@H]2[C@@H](OCc1ccccc1)CC3 (stereo partly specified)	> 100 µM
OCC1OC(NC(=S)NCSCCC(F)(F)C(F)(F)C(F)(F)C(F)(F)C(F)(F)C(F)(F)F)C(O)C(O)C1O (stereo unspecified)	> 100 µM
COc1cccc(/C=N/[N-]C(N)=O)c1[O-].[OH3+].[Zn+2]	> 100 µM
Cn1cc(-c2ccc3c(c2)ncn3-c2ccc(CC(=O)Nc3cc(C(C)(C)C)on3)cc2)cn1	> 39.8 µM
CC(C)Cn1cnnc1NS(=O)(=O)c1cc(C(=O)NN)c(Cl)cc1S	> 10 µM
C/C(O)=C/c1nc2sc(C)c(C)c2c(=O)s1	> 100 µM

* * *

# Test system: COLO 205 colon
# Test protocol: NCI tumour cell line growth inhibition, 48 h
Measurement name: TGI

> print(dat)
                    structure.smiles.string    study.target  measurement.name  recorded.result
1  COc1ccc(/C=N/Nc2nc3ccccc3c(=O)n2-c2ccccc2)cc1  COLO 205 colon               TGI         > 100 µM
2          Cc1ccc2c(c1)C(=O)c1ccc(C)nc1C2=O  COLO 205 colon               TGI         > 100 µM
3  O=C(O)c1ccccc1/C=C1\Cc2ccc3c(c2C1=O)CCCC3  COLO 205 colon               TGI         > 100 µM

* * *

# Tested on: OVCAR-8 ovarian
# Test protocol: NCI tumour cell line growth inhibition, 48 h
Measurement name: TGI

Compound	Measurement name	Recorded result
O=[N+]([O-])c1ccc2nc(/C=C(\O)c3ccccc3)c(/C=C(\O)c3ccc(Cl)cc3)nc2c1	TGI	> 100 µM
CC(C)Cn1cnnc1NS(=O)(=O)c1cc(C(=O)NN)c(Cl)cc1S	TGI	> 10 µM
c1cc(-c2ccc(Oc3ccc(-c4ccncc4)cc3)cc2)ccn1	TGI	> 100 µM
O=Cc1cc(O)ccc1Br	TGI	53.7 µM
CC(=O)NC1C(OCc2ccccc2)OC(CO)C(O)C1OCC(=O)NC(C)C(=O)NC(CCC(=O)Nc1ccc2c(c1)CN1C(=O)c3ccccc3C1=N2)C(N)=O (stereo unspecified)	TGI	> 100 µM
CC(C)=CCC/C(C)=C/CC/C(C)=C/C(O)c1ccccc1 (stereo unspecified)	TGI	40.6 µM
ClCc1nc2cc(Cl)ccc2o1	TGI	20 µM
COc1ccc(C2=NN(c3ccc(S(N)(=O)=O)cc3)C(c3ccc(Cl)cc3)C2)c(O)c1 (stereo unspecified)	TGI	44.4 µM
CC[C@]12C=CCN3CC[C@]4(C(=C(C(=O)OC)C1)Nc1ccccc14)[C@@H]32	TGI	> 100 µM
CCOC(=O)C12CN(C34CC5CC(CC(C5)C3)C4)CC(C(=O)OCC)(C1=O)C(c1ccccc1)OC2c1ccccc1 (stereo unspecified)	TGI	> 100 µM
Cn1cc(-c2nonc2-c2cn(C)c3ccc(Br)cc23)c2ccccc21	TGI	> 100 µM
[N-]=[N+]=NC1=C(N=[N+]=[N-])c2cccc3cccc(c23)C1=O	TGI	> 100 µM
CCN(CC)c1ccc(/C=C/C2=[N+](C)c3ccccc3C2(C)C)cc1	TGI	> 100 µM
COC1(CCO)CC=CCC1(CCO)OC (stereo unspecified)	TGI	> 100 µM
COc1ccc2c(c1)CC[C@@H]1C2CC[C@]2(C)C(=O)N(C)C(=O)CC12 (stereo partly specified)	TGI	> 100 µM
COc1cccc(/C=N/[N-]C(N)=O)c1[O-].[OH3+].[Zn+2]	TGI	> 100 µM

* * *

# Test system: HL-60(TB) leukemia
# Test protocol: NCI tumour cell line growth inhibition, 48 h
Known TGI of a selection of molecules
Measurement name: TGI

> print(dat)
                                   molecule  recorded.result
1  Cc1cc2c(cc1-c1cc3c(cc1C)C(C(C)C)=C(O)C(=O)/C3=C\Nc1cccc3c(N)cccc13)/C(=C/Nc1cccc3c(N)cccc13)C(=O)C(O)=C2C(C)C         > 100 µM
2  CC1(C)CCC(CN2CCN(c3ccc(C(=O)NS(=O)(=O)c4ccc(NCC5CCOCC5)c([N+](=O)[O-])c4)c(Oc4cnc5[nH]ccc5c4)c3)CC2)=C(c2ccc(Cl)cc2)C1          2.33 µM
3                      ClCc1nc2cc(Cl)ccc2o1          21.1 µM
4  COC(=O)CC(CC(=O)C(=O)OC)C(=O)OC (centres undefined)         > 100 µM
5  COc1cc(-c2cn(-c3ccc(Cl)cc3)c(=O)n2-c2ccccc2)cc(OC)c1OC        > 38.5 µM
6  Nc1nc(Cl)c(N)c(NCC2(CO)CC(O)C2)n1 (centres undefined)         > 100 µM
7      Nc1ccc(C(=O)O)c2[nH]c3ccccc3c(=O)c12         > 100 µM
8  C/C=C(\C)C(=O)O[C@@H]1C=CC(=O)O[C@H]1COC(=O)[C@H](C)O          21.3 µM
9  COC(=O)/C=C(\S/C(=C(/c1ccccc1)n1cc(C(=O)OC)c(C(=O)OC)n1)c1ccccc1)C(=O)OC          12.6 µM

* * *

# Tested on: KM20L2 colon
# Test protocol: NCI tumour cell line growth inhibition, 48 h
Measurement name: TGI

> print(dat)
                                   compound  measurement.name  recorded.result
1  NC(N)=NCCCS(=O)(=O)Nc1ccc(Nc2c3ccccc3nc3cc([N+](=O)[O-])ccc23)cc1               TGI        > 76.2 µM
2  Cc1cc2c(C)nn(Cc3ccc(Cl)cc3Cl)c2c(C#N)c1C               TGI         > 100 µM
3        COc1ccc(C=O)c(N(C)C(=O)C(C)(C)C)c1               TGI         > 100 µM
4  O=C(NCCS(=O)(=O)N1C(=O)C2CCCN2C(=O)[C@@H]1Cc1ccccc1)OCc1ccccc1 (some centres undefined)               TGI         > 100 µM
